assay type: in vivo; conditions: Mouse, PO, 10 mpk of 8B; concentration of 7B detected
readout-label: Cmax (nM)
Report the value in nM with no unit label.

[Q] Tell me the measured Cmax of COC(=O)OCOc1c2n(ccc1=O)N1[C@H](c3ccccc3)c3cc(F)c(F)cc3OCC[C@H]1N(C)C2=O , please.
[A] 309

###

type: in vivo, Beagle dogs; settings: Dog, PO, 1 mpk of 8B; concentration of 7B detected
readout-label: Cmax
Please make sure the unit comes right after the number.

[Q] Tell me the measured Cmax of COC(=O)OCOc1c2n(ccc1=O)N1[C@H](c3ccccc3)c3cc(F)c(F)cc3OCC[C@H]1N(C)C2=O , please.
[A] 171 nM
